- Tested on: Plasmodium falciparum
- test-method-notes: GSK_TCMDC: Inhibition of Plasmodium falciparum 3D7 in whole red blood cells, using parasite LDH activity as an index of growth. Test compounds present at 2uM
- Type: functional

>  <molecule>
CC(C)(C)c1cc(C(=O)N2CCN(c3ncnc4ccsc34)CC2)n(Cc2ccccc2)n1

>  <unit-of-measure>
%

>  <Inhibition>
95

$$$$
>  <molecule>
OC(CNc1ccnc(Nc2cccc(Cl)c2)n1)c1cccc(F)c1 (stereo not drawn)

>  <unit-of-measure>
%

>  <Inhibition>
90

$$$$
>  <molecule>
CCC(C)CNC(=O)CN1CN(c2ccccc2)C2(CCN(C(=O)c3ccc(Br)cc3)CC2)C1=O (stereo not drawn)

>  <unit-of-measure>
%

>  <Inhibition>
88

$$$$
>  <molecule>
CC(C)(C)[C@@H](Nc1ccc(C#N)c2ccccc12)C(=O)NC1(Cc2ccc(O)cc2)CCCC1

>  <unit-of-measure>
%

>  <Inhibition>
90

$$$$
>  <molecule>
Br.CC1(C)NC(N)=NC(=N)N1OCCCCOc1ccccc1

>  <unit-of-measure>
%

>  <Inhibition>
95

$$$$
>  <molecule>
COc1ccc(CCNC(=O)c2cc(C)ccc2O)cc1-c1ccc(C(C)(C)C)cc1

>  <unit-of-measure>
%

>  <Inhibition>
97

$$$$
>  <molecule>
O=C(C=CC(=O)N1CCCCC1)NCc1ccccc1

>  <unit-of-measure>
%

>  <Inhibition>
100

$$$$
>  <molecule>
COCCN(C)c1ccc(C(=O)Nc2ccccc2)cc1NS(=O)(=O)Cc1ccccc1.O=C(O)C(F)(F)F

>  <unit-of-measure>
%

>  <Inhibition>
92

$$$$
>  <molecule>
COc1ccc(CN2CCCN(Cc3cccc(C(=O)Nc4ccc(C(C)(C)C)cc4)c3)CC2)cc1.O=C(O)C(F)(F)F

>  <unit-of-measure>
%

>  <Inhibition>
98

$$$$
>  <molecule>
CN(C)c1ccc(CN2CCCCC(NC(=O)c3cc(-c4ccccc4Cl)cs3)C2)cc1.O=C(O)C(F)(F)F (stereo not drawn)

>  <unit-of-measure>
%

>  <Inhibition>
91

$$$$
>  <molecule>
c1ccc(Oc2ccc(Nc3ccnc4cc(-c5csc(CNCCN6CCOCC6)n5)ccc34)cc2)cc1

>  <unit-of-measure>
%

>  <Inhibition>
100

$$$$
>  <molecule>
COc1ccccc1-c1ccc2nnc(SCC(=O)Nc3ccc4c(c3)OCCO4)n2n1

>  <unit-of-measure>
%

>  <Inhibition>
99

$$$$
>  <molecule>
CC(C)NCc1cccc(-c2cccc(NC(=O)c3cccc(Cl)c3)c2)c1.O=C(O)C(F)(F)F

>  <unit-of-measure>
%

>  <Inhibition>
98

$$$$
>  <molecule>
O=C(O)C(F)(F)F.O=C(c1ccccc1)N(Cc1ccccc1-c1ccc(CNCCc2ccccc2)cc1)C1CCN(Cc2ccccc2)CC1

>  <unit-of-measure>
%

>  <Inhibition>
95

$$$$
>  <molecule>
COc1ccc(C(c2ccc(N(C)C)cc2)c2ccc(N(C)C)cc2)cc1

>  <unit-of-measure>
%

>  <Inhibition>
100

$$$$
>  <molecule>
CCn1c(Sc2ccc(C#N)c([N+](=O)[O-])c2)nnc1-c1cccc(Cl)c1

>  <unit-of-measure>
%

>  <Inhibition>
95

$$$$
>  <molecule>
CCN(CC)CCNc1ccc(Nc2ccnc3cc4ccccc4cc23)cc1

>  <unit-of-measure>
%

>  <Inhibition>
100

$$$$
>  <molecule>
COc1ccc2ncc(Cl)c([C@H](O)CN3CCC(NCc4cc5c(cn4)OCCO5)CC3)c2c1.Cl

>  <unit-of-measure>
%

>  <Inhibition>
100

$$$$
>  <molecule>
CCN(CC)Cc1cc(Nc2ccnc3cc(Cl)ccc23)ccc1O.Cl.Cl.Cl

>  <unit-of-measure>
%

>  <Inhibition>
100

$$$$
>  <molecule>
CC(C)C(C(=O)n1ncc2c3c(N)nc(N)nc3ccc21)C(C)C

>  <unit-of-measure>
%

>  <Inhibition>
98

$$$$
>  <molecule>
CCN(CC)S(=O)(=O)c1ccc(C(=O)Oc2ccccc2N(Cc2ccc(OC)cc2)C2=NS(=O)(=O)c3ccccc32)cc1

>  <unit-of-measure>
%

>  <Inhibition>
98

$$$$
>  <molecule>
O=C(O)C(F)(F)F.OCCN1CCN(Cc2cccc(-c3ccc(-c4nc5cc(C(F)(F)F)ccc5[nH]4)cc3)c2)CC1

>  <unit-of-measure>
%

>  <Inhibition>
100

$$$$
>  <molecule>
CC(=O)Nc1nc(C(=O)Nc2ccc(-c3ccc(-c4nc5ccccc5[nH]4)cc3)cc2)cs1

>  <unit-of-measure>
%

>  <Inhibition>
100

$$$$
>  <molecule>
Oc1ccc(-c2ccccc2)cc1CN1CCCCCC1

>  <unit-of-measure>
%

>  <Inhibition>
95

$$$$
>  <molecule>
O=C(O)C(F)(F)F.c1cc(CN2CCC(CCN3CCCCC3)CC2)cc(-c2csc(-c3nc4ccccc4[nH]3)c2)c1

>  <unit-of-measure>
%

>  <Inhibition>
99

$$$$
>  <molecule>
COc1ccc(CN2CCC2=O)c(OC)c1

>  <unit-of-measure>
%

>  <Inhibition>
98

$$$$
>  <molecule>
Cl.N#Cc1cccc(-c2cccc(C(=O)NC3CCC(CCN4CCc5ccc(C#N)cc5CC4)CC3)c2)c1 (stereo not drawn)

>  <unit-of-measure>
%

>  <Inhibition>
99

$$$$
>  <molecule>
CC(C)(CNCc1ccc(OC(F)(F)F)cc1)c1nc(-c2ccc(Cl)c(O)c2)c(-c2ccncc2)[nH]1.Cl

>  <unit-of-measure>
%

>  <Inhibition>
100

$$$$
>  <molecule>
Br.CCCCCCCNCCNc1cc(C)nc2ccccc12

>  <unit-of-measure>
%

>  <Inhibition>
100

$$$$
>  <molecule>
CCCCc1ccc(-c2ccc(-c3c(C)[nH]c(C)c(Br)c3=O)cn2)cc1.Cl

>  <unit-of-measure>
%

>  <Inhibition>
98

$$$$
>  <molecule>
COc1ccc2c(CNCCCCCCNCc3c(OC)ccc4cc(OC)ccc34)c(OC)ccc2c1.CS(=O)(=O)O

>  <unit-of-measure>
%

>  <Inhibition>
100

$$$$
>  <molecule>
Cc1cc2[nH]c(-c3ccc(C(=O)NCCCN4CCN(c5cccc(Cl)c5)CC4)cc3)nc2cc1Cl

>  <unit-of-measure>
%

>  <Inhibition>
98

$$$$
>  <molecule>
COc1cccc(NC(=O)Nc2ccc(Nc3nc(C)cc(N4CCCC4)n3)cc2)c1

>  <unit-of-measure>
%

>  <Inhibition>
100

$$$$
>  <molecule>
CCn1c(-c2nonc2N)nc2cnc(Oc3cccc(NC(=O)c4ccc(OCCN5CCCC5)cc4)c3)cc21

>  <unit-of-measure>
%

>  <Inhibition>
92

$$$$
>  <molecule>
OC(CNCc1ccccc1OCc1ccccc1)c1cc(C(F)(F)F)cc(C(F)(F)F)c1 (stereo not drawn)

>  <unit-of-measure>
%

>  <Inhibition>
100

$$$$
>  <molecule>
O=C1C(c2ccccc2)=C(Nc2ccc(Cl)cc2)c2ccccc21

>  <unit-of-measure>
%

>  <Inhibition>
91

$$$$
>  <molecule>
COc1ccccc1CCNC(=O)c1cc(Br)cc(N2CCN(c3ccncc3)CC2)c1.O=C(O)C(F)(F)F

>  <unit-of-measure>
%

>  <Inhibition>
84

$$$$
>  <molecule>
CCOc1cc(C(=O)N[C@@H](Cc2ccccc2)[C@H](O)CNCc2cc(OC)cc(OC)c2)cc(N2CCCS2(=O)=O)c1.Cl

>  <unit-of-measure>
%

>  <Inhibition>
94

$$$$
